Tested on: 857933-349-R-J2-PDC complex spheroids, viability
Experiment: Anticancer human tumor 857933-349-R-J2-PDC patient-derived colon adenocarcinoma cell line growth inhibition [GQUAD]
Details: second compound 1 µM; first compound 1 µM; stronger effect = lower value
Threshold check on viability, T/C: strictly below 30% is 1.0; on or above 30% is 0.0.

[ask] Problem: For the molecule CC(C)(O)C1CCC(Nc2ccc3ncc(-c4cccc(C(F)(F)F)c4)n3n2)CC1 (stereo not drawn) + Cc1cnc(CNC(=O)c2c(=O)c3ccc(N4CCCN(C)CC4)nc3n3c2sc2ccccc23)cn1 , is viability, T/C under 30%?
[reply] 1.0

[ask] Problem: For the molecule CC(C)n1c(=O)n(C)c2cnc3cc(F)c(-c4ccc(OCCCN5CCCCC5)nc4)cc3c21 + CN(C)c1ccc(Nc2c3ccc(NC(=O)CCN4CCCC4)cc3nc3cc(NC(=O)CCN4CCCC4)ccc23)cc1 , is viability, T/C under 30%?
[reply] 0.0

[ask] Problem: For the molecule CCCS(=O)(=O)Nc1ccc(F)c(C(=O)c2c[nH]c3ncc(-c4ccc(Cl)cc4)cc23)c1F + Cc1cnc(CNC(=O)c2c(=O)c3ccc(N4CCCN(C)CC4)nc3n3c2sc2ccccc23)cn1 , is viability, T/C under 30%?
[reply] 1.0

[ask] Problem: For the molecule CC(C)n1c(=O)n(C)c2cnc3cc(F)c(-c4ccc(OCCCN5CCCCC5)nc4)cc3c21 + Cc1cnc(CNC(=O)c2c(=O)c3ccc(N4CCCN(C)CC4)nc3n3c2sc2ccccc23)cn1 , is viability, T/C under 30%?
[reply] 1.0

[ask] Problem: For the molecule COc1cccc2c1C(=O)c1c(O)c3c(c(O)c1C2=O)CC(O)(C(=O)CO)CC3OC1CC(N)C(O)C(C)O1 (stereo not drawn) + Cc1[nH]c2ccc(F)cc2c1-c1nc2c3cccnc3c3ncccc3c2[nH]1 , is viability, T/C under 30%?
[reply] 0.0

====

List of viability, T/C values.
Tested on: 857933-349-R-J2-PDC complex spheroids, viability
Experiment: Anticancer human tumor 857933-349-R-J2-PDC cell line growth inhibition [GQUAD];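 further: spheroids exposed to compounds for one week before readout; percent viability relative to vehicle DMSO wells taken as 100%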
Details: second compound 0.316 µM; first compound 0.316 µM; stronger effect = lower value

Consider the reported viability, T/C for these molecules:
molecule	viability, T/C
O=C(NO)c1cnc(N2CCN(S(=O)(=O)c3ccc4ccccc4c3)CC2)nc1 + Cc1[nH]c2ccc(F)cc2c1-c1nc2c3cccnc3c3ncccc3c2[nH]1	96.1%
O=C(NO)c1cnc(N2CCN(S(=O)(=O)c3ccc4ccccc4c3)CC2)nc1 + Cc1cnc(CNC(=O)c2c(=O)c3ccc(N4CCCN(C)CC4)nc3n3c2sc2ccccc23)cn1	24.2%
C=CC(=O)N1CCN(c2nc(=O)n(-c3c(C)ccnc3C(C)C)c3nc(-c4c(O)cccc4F)c(F)cc23)C(C)C1 (stereo not given) + CN(C)c1ccc(Nc2c3ccc(NC(=O)CCN4CCCC4)cc3nc3cc(NC(=O)CCN4CCCC4)ccc23)cc1	99%
O=c1[nH]cc(F)c(=O)[nH]1 + Cc1cnc(CNC(=O)c2c(=O)c3ccc(N4CCCN(C)CC4)nc3n3c2sc2ccccc23)cn1	22.8%
Cn1ncnc1[C@H]1c2n[nH]c(=O)c3cc(F)cc(c23)N[C@@H]1c1ccc(F)cc1 + Cc1cnc(CNC(=O)c2c(=O)c3ccc(N4CCCN(C)CC4)nc3n3c2sc2ccccc23)cn1	31.5%
CC1COCCN1c1cc(-c2ccnn2C)c2ccnc(-c3ccn[nH]3)c2n1 (stereo not given) + Cc1[nH]c2ccc(F)cc2c1-c1nc2c3cccnc3c3ncccc3c2[nH]1	49.2%
C=CC(=O)N1CCN(c2nc(=O)n(-c3c(C)ccnc3C(C)C)c3nc(-c4c(O)cccc4F)c(F)cc23)C(C)C1 (stereo not given) + Cc1[nH]c2ccc(F)cc2c1-c1nc2c3cccnc3c3ncccc3c2[nH]1	101%
CC1COCCN1c1cc(-c2ccnn2C)c2ccnc(-c3ccn[nH]3)c2n1 (stereo not given) + Cc1cnc(CNC(=O)c2c(=O)c3ccc(N4CCCN(C)CC4)nc3n3c2sc2ccccc23)cn1	5.16%

Looking up COc1cccc2c1C(=O)c1c(O)c3c(c(O)c1C2=O)CC(O)(C(=O)CO)CC3OC1CC(N)C(O)C(C)O1 (stereo not given) + CN(C)c1ccc(Nc2c3ccc(NC(=O)CCN4CCCC4)cc3nc3cc(NC(=O)CCN4CCCC4)ccc23)cc1 , I found its viability, T/C recorded as 72.7%

Looking up CC(=O)O[C@H]1C(=O)[C@@]2(C)[C@H]([C@H](OC(=O)c3ccccc3)[C@]3(O)C[C@H](OC(=O)[C@H](O)[C@@H](NC(=O)c4ccccc4)c4ccccc4)C(C)=C1C3(C)C)[C@]1(OC(C)=O)CO[C@@H]1C[C@@H]2O + Cc1[nH]c2ccc(F)cc2c1-c1nc2c3cccnc3c3ncccc3c2[nH]1 , I found its viability, T/C recorded as 10.8%
